# MAB (human) values compiled below
experiment: Microsome incubation, metabolic stability (human); type: in vitro ADME; conditions: comparison table; human
Return type: number; implicit unit %.

Some molecules with known MAB (human) results, for comparison:
| molecule | unitName | MAB (human) |
| --- | --- | --- |
| CC(O)(C(=O)NCC(F)(F)C(F)(F)F)C(=O)N[C@H]1CN(CC(F)(F)F)c2ccccc2NC1=O (single isomer, unassigned) | % | 55.5 |
| CC(C)(C(=O)NCC(F)(F)C(F)(F)F)C(=O)N[C@H]1CN(C(=O)OCC(F)(F)F)c2ccccc2N(CC(F)(F)F)C1=O [reference compound] | % | 19.6 |
| CC(C)(C(=O)NCC(F)(F)C(F)(F)F)C(=O)N[C@H]1CN(CC(F)(F)F)c2ccccc2NC1=O [reference compound] | % | 43.1 |
| CC(O)(C(=O)NCC(F)(F)C(F)(F)F)C(=O)N[C@H]1CN(C(=O)OCC(F)(F)F)c2ccccc2N(CC(F)(F)F)C1=O (single isomer, unassigned) | % | 100.0 |

Now let's try a different one.
Looking up CC(C(=O)NCC(F)(F)C(F)(F)F)C(=O)N[C@H]1CN(C(=O)OCC2CC2)c2ccccc2N(CC(F)(F)F)C1=O (some centres unmarked) [reference compound] , I found its MAB (human) recorded as 26.8
